The values you see were collected from PubChem BioAssay.

Assay: stimulators of nuclear beta-catenin in C2C12, primary screen, imaging, WNT3A-conditioned medium, mouse C2C12, NPC library (AID 1117326); note: reference of the scale not given here
Conditions: stimulation, at 2 µM, stronger effect = higher value
READOUT: nuclear beta-catenin stimulation (%)
Please respond with the number in % and leave the unit unwritten.

| COMPOUND | nuclear beta-catenin stimulation (%) |
| --- | --- |
| C[C@@]12CCC[C@H]1[C@@H]1CC[C@H]3C[C@@H](O)CC[C@]3(C)[C@H]1CC2 | -0.1 |
| c1ccc2c(CC3=NCCN3)cccc2c1 | 1.1 |
| C[C@]12CCC(=O)C=C1CC[C@@H]1[C@@H]2[C@@H](O)C[C@@]2(C)[C@H]1CC[C@]2(O)C(=O)CO | 0.1 |
| CC(=O)OC[C@H]1O[C@@](COC(C)=O)(O[C@H]2O[C@H](COC(C)=O)[C@@H](OC(C)=O)[C@H](OC(C)=O)[C@H]2OC(C)=O)[C@@H](OC(C)=O)[C@@H]1OC(C)=O | -0.8 |
| CC(C)Cc1ccc(C(C)C(=O)OCc2ccccn2)cc1 (centres undefined) | 1.5 |
| O=C(Nc1ccc([N+](=O)[O-])cc1)Nc1ccc([N+](=O)[O-])cc1 | 1.9 |
| C[C@@H]1CCN(C(=O)[C@H](CCCN=C(N)N)NS(=O)(=O)c2cccc3c2NC[C@H](C)C3)[C@@H](C(=O)O)C1 | -0.5 |
| Nc1ccc(S(=O)(=O)c2ccc(N)cc2)cc1 | -0.4 |

Let us move to another entry and its nuclear beta-catenin stimulation.
Asked: Using the record for Clc1ccccc1-c1nc(-c2ccncc2)no1 , state its measured nuclear beta-catenin stimulation.
Given back: 0.5
